tested on: UACC-257; test: NCI tumour cell line growth inhibition, 48 h
The source made the active and inactive calls. Cut-off read from the data, not from the text of the source: active = GI50 up to about 1.1 µM and inactive = higher.
experimental_endpoint: GI50

Example entries begin here.
{"compound": "CCCC(C)C[C@@H](C)CC(C)/C=C(\\C)c1oc(=O)c(C)c(O)c1C.CC[C@@H](C)C[C@@H](C)C[C@@H](C)/C=C(\\C)c1oc(=O)c(C)c(O)c1C (some centres undefined)", "assay_target": "UACC-257", "measured": "14.7 µM (inactive)"}
{"compound": "COc1cccc(C23CCCC(C2)NCC3Br)c1OC (centres undefined)", "assay_target": "UACC-257", "measured": "8.39 µM (inactive)"}
{"compound": "CN1CCc2[nH]nc(-c3n[nH]c4c3CN(C)CC4)c2C1", "assay_target": "UACC-257", "measured": "> 100 µM (inactive)"}
{"compound": "CCCCc1c(OC)cc(O)c2c1C(=O)c1[nH]c(C(=O)O)c(O)c(=O)c1C2=O", "assay_target": "UACC-257", "measured": "10.4 µM (inactive)"}

Input line: Any idea what its GI50 is? The compound is COc1cc(C(O)C(=O)c2cnc3cc([N+](=O)[O-])ccc3n2)ccc1O (centres undefined)
Output line: > 100 µM (inactive)

Input line: What value of measured GI50 is listed for O=P1(N(CCCl)CCCl)Oc2ccc(Cl)cc2Sc2c(ccc(Cl)c2Cl)O1 (centres undefined) ?
Output line: 10.4 µM (inactive)

Input line: Entry under review: `O=c1/c(=C/c2cccc([N+](=O)[O-])c2)sc2nc3ccccc3n12` . Reported GI50?
Output line: 4.71 µM (inactive)

Input line: // GI50 lookup, key: `CN(C)c1ccc(/C=N/Nc2nc3ccccc3c(=O)n2-c2ccccc2)cc1`
Output line: > 100 µM (inactive)

Input line: Could you tell me which GI50 is on file for CN(C)/C=[N+]1/[C@@H](Cc2ccccc2)C(=O)O[B-]1(F)c1ccccc1 (some centres undefined) ?
Output line: > 100 µM (inactive)

###

system: XF498; test: NCI tumour cell line growth inhibition, 48 h
Calls of active or inactive are those of the source. Cut-off read from the data, not from the text of the source: active = GI50 up to about 1.1 µM and inactive = higher.
experimental_endpoint: GI50

{"molecule": "Cc1ccc(NC(=O)C(=O)CC(=O)C2CCOC2=O)c(C)c1 (stereo unspecified)", "GI50": "> 100 µM (inactive)"}
{"molecule": "O=C(NC(Cc1ccc(Br)cc1)C(=O)O)c1ccc(I)cc1 (stereo unspecified)", "GI50": "> 100 µM (inactive)"}
{"molecule": "COCNC(=NC#N)NCOC", "GI50": "> 100 µM (inactive)"}
{"molecule": "Cc1c(C(=O)CC(=O)C(=O)Nc2c(C(C)C)cccc2C(C)C)[n+]([O-])c2ccccc2[n+]1[O-]", "GI50": "3.05 µM (inactive)"}
{"molecule": "Cc1cc(NCCCCCCCCNc2cc(C)nc3cc(N(C)C)ccc23)c2ccc(N(C)C)cc2n1", "GI50": "1.98 µM (inactive)"}

Please examine the following record next.
Input line: # GI50 lookup, item CC(Nc1ccc(S(=O)(=O)NC(=N)N)cc1)c1c2ccccc2nc2ccccc12 (stereo unspecified)
Output line: 15.8 µM (inactive)

###

tested on: KM12; test: NCI tumour cell line growth inhibition, 48 h
Calls of active or inactive are those of the source. Cut-off read from the data, not from the text of the source: active = GI50 up to about 1.1 µM and inactive = higher.
Field 'call' accepts active, inactive

Input line: Could you kindly confirm the outcome this assay logged for `CC1=C(C)C(=O)C(C2=CC(=O)C=CC2=O)=C(C2=CC(=O)C=CC2=O)C1=O` ?
Output line: inactive

Input line: Field: outcome | Entry: `N#CC(=S)Nc1cccc(Cl)c1`
Output line: inactive

Input line: I would be grateful if you could indicate the recorded call for `CCN(CCCl)c1cc(CN(C)C)cc(NC(=O)c2ccc(C(=O)Nc3cc(CN(C)C)cc(N(CC)CCCl)c3)cc2)c1` .
Output line: active

Input line: Tell me the recorded outcome of this test for `Cc1ccc(NC(=O)c2cc(S(=O)(=O)Nc3nc4cccnc4[nH]3)c(SSc3cc(Cl)c(C(=O)Nc4ccc(C)cc4)cc3S(=O)(=O)Nc3nc4cccnc4[nH]3)cc2Cl)cc1` .
Output line: inactive

###

test system: IGROV-1; assay: NCI tumour cell line growth inhibition, 48 h
Active and inactive are the calls of the source. No stated cut-off is given here; in the data, active = GI50 up to about 1.1 µM and inactive = higher.
Write down one outcome, taken from active, inactive

These recorded examples may help you get a feel for the data.
{"molecule": "CN1c2ccccc2C(=O)NC12CCNCC2", "assay_target": "IGROV-1", "label_class": "inactive"}
{"molecule": "COc1ccc2c(c1)CCN1CCc3cc(OC)c(OC)cc3CC21 (configuration not stated)", "assay_target": "IGROV-1", "label_class": "inactive"}
{"molecule": "COc1ccc(C(CC2(c3ccc(OC)cc3)SCCCS2)NC(C)=O)cc1 (configuration not stated)", "assay_target": "IGROV-1", "label_class": "inactive"}
{"molecule": "COC(=O)C1=C2Nc3ccccc3C23CCN2C(O)C4(CC5CC67CCOC6CCN6CCC8(c9cccc(OC)c9N(C4)C58O)C67)C4OCCC4(C1)C23 (configuration not stated)", "assay_target": "IGROV-1", "label_class": "inactive"}
{"molecule": "O=c1c(-c2ccccc2)nnc2n(Cc3ccccc3)c3ccccc3n12", "assay_target": "IGROV-1", "label_class": "inactive"}
{"molecule": "C[C@H]1CC(=O)[C@@]2(O)C#C/C=C\\C#C[C@@H]3Nc4c(cc(O)c5c4C(=O)c4ccccc4C5=O)[C@]24O[C@]314", "assay_target": "IGROV-1", "label_class": "active"}

Now consider the entry below.
Input line: Could you kindly confirm the outcome this assay logged for `O=S(=O)(O)c1cc(S(=O)(=O)O)c2cc(/N=N/c3ccc(/N=N/c4ccc(/C=C/c5ccc(/N=[N+](/[O-])c6ccc(/C=C/c7ccc(/N=N/c8ccc(/N=N/c9ccc%10cc(S(=O)(=O)O)cc(S(=O)(=O)O)c%10c9)cc8)cc7S(=O)(=O)O)c(S(=O)(=O)O)c6)cc5S(=O)(=O)O)c(S(=O)(=O)O)c4)cc3)ccc2c1` ?
Output line: inactive

###

system: SF-539; experiment: NCI tumour cell line growth inhibition, 48 h
The source made the active and inactive calls. Rule as the data show it: active = GI50 up to about 1.1 µM and inactive = higher.
Mark one answer only. Choices: Y = active, N = inactive

Some entries whose results are on file:
{"compound": "NC(=O)OCC(COc1ccc(Cl)cc1)OC(=O)c1ccccc1Cl (stereo unspecified)", "label_class": "N"}
{"compound": "C/C(=N\\NS(=O)(=O)c1c(C)cc(C)cc1C)c1ccc[n+]([O-])n1", "label_class": "N"}
{"compound": "CC1(C)[C@H]2Cc3cc4nc5ccccn5c4cc3[C@@H]1C2", "label_class": "N"}
{"compound": "Oc1ccccc1/C=C/c1csnn1", "label_class": "N"}
{"compound": "O=c1[nH]c2ccc([N+](=O)[O-])c(Cl)c2c2ccccc12", "label_class": "Y"}
{"compound": "CC12CCC3(OCCO3)C(OC(=O)c3ccccc3)=C1CCC21OCCO1 (stereo unspecified)", "label_class": "N"}

Input line: Could you please tell me the result logged for `CCCCc1c(OC)cc(O)c2c1C(=O)c1[nH]c(C(=O)O)c(O)c(=O)c1C2=O` in this assay?
Output line: Y

Input line: What was the test verdict on COc1cc2c3c(cc(Cl)nc3c1OC)C(O)(CC(=O)c1ccccc1)C(=O)N2 (stereo unspecified) ?
Output line: Y

Input line: Please indicate how the test categorized COc1ccc2c(c1)CCC1=C/C(=N\NC(N)=O)CCC12C (stereo unspecified) .
Output line: N

Input line: Given CCN(CCO)CC1CCCC2CCCCC21 (stereo unspecified) , state the outcome it received in this test.
Output line: N

Input line: // param item: `Cc1c(Cl)c2ccccc2n1S(=O)(=O)c1ccccc1` ; yields the recorded call
Output line: N

###

test system: SK-MEL-5; experiment: NCI tumour cell line growth inhibition, 48 h
The source made the active and inactive calls. No stated cut-off is given here; in the data, active = GI50 up to about 1.1 µM and inactive = higher.
Recorded measurements of GI50, one per entry

{"compound": "Cc1c(-c2ccccc2)c(C#N)c2nnn(-c3ccc([N+](=O)[O-])cc3)c(=O)n12", "GI50": "33 µM (inactive)"}
{"compound": "O=S(=O)(c1cc(Cl)ccc1Cl)n1ccnc1", "GI50": "18.8 µM (inactive)"}
{"compound": "O=C(C/C(=N/O)c1cc(-c2ccccc2)no1)c1ccccc1", "GI50": "80.9 µM (inactive)"}
{"compound": "SC1=NC2=C(CSC/C2=C\\c2ccc(Cl)cc2)C(c2ccc(Cl)cc2)N1 (stereo not given)", "GI50": "19.1 µM (inactive)"}

Now take the following compound into account.
Input line: For the compound `CC1(CO)COC(C)(C)OC1` , what GI50 is on record?
Output line: > 100 µM (inactive)

###

test system: U-251; test: NCI tumour cell line growth inhibition, 48 h
Activity calls are given as the source filed them. Cut-off read from the data, not from the text of the source: active = GI50 up to about 1.1 µM and inactive = higher.
Select the correct class. Options are active, inactive and nothing else.

The following compounds have reported results that may help.
{"compound": "COc1ccc(N2C(=O)C3c4[nH]c5cccc(C)c5c4C4CCC(C(C)(C)C)CC4C3C2=O)cc1 (stereo not given)", "label_class": "inactive"}
{"compound": "COc1cc2c(cc1OCCCCOc1cc3nc(C)nc(Cl)c3cc1OC)N=C[C@@H]1CCCN1C2=O", "label_class": "inactive"}
{"compound": "C/C=C/C=C\\C(=O)C1c2cccc(O)c2C(=O)c2c(O)cc(C)cc21 (stereo not given)", "label_class": "active"}
{"compound": "Cc1ccc(C2CC(=O)CC(c3ccc(C)cc3)C23C(=O)NC(=O)NC3=O)cc1 (stereo not given)", "label_class": "inactive"}

# evaluate next
Input line: Hello, I am checking results. What call was entered for C=C(C)C1Cc2c(cc(O)c3c(=O)c4c(oc23)C(O)Oc2cc(OC)c(OC)cc2-4)O1 (stereo not given) ?
Output line: inactive

Data origin: ChEMBL document CHEMBL1201862
